Measured values drawn from patent US7514455B2 for this set.

target: rat liver complex II (Rattus norvegicus, UniProt P21913+Q641Z9+Q6PCT8); construct: from tissue; host or cells: rat liver mitochondria; test: Inhibition of succinate dehydrogenase activity of rat liver complex II (DCIP reduction); assay type: biochemical
Sequence (Q920L2 35-656 partner): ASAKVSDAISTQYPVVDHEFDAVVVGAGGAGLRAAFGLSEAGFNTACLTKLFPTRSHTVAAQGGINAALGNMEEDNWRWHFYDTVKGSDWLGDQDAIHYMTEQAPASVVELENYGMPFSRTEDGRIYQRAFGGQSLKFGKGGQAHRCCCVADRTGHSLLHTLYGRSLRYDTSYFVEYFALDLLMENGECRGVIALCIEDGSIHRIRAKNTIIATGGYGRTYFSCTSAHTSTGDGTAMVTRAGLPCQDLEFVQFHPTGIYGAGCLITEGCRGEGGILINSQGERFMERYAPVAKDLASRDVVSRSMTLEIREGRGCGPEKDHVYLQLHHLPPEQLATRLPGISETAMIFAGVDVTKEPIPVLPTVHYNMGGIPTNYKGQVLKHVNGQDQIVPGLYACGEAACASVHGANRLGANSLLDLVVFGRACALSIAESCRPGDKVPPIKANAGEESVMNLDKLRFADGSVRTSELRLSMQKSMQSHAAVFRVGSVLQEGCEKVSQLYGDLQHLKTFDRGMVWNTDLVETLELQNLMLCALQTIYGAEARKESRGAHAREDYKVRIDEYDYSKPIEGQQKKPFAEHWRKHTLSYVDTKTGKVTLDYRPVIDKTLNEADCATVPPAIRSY
Sequence (P21913 31-282): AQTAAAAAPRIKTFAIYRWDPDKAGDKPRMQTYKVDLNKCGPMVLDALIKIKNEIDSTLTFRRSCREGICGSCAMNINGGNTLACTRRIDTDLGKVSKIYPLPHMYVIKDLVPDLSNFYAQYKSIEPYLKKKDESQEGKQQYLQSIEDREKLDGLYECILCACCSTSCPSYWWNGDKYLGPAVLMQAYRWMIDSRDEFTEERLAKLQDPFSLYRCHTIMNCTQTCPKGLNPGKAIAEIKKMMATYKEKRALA
Sequence (Q641Z9 30-169 limits assumed): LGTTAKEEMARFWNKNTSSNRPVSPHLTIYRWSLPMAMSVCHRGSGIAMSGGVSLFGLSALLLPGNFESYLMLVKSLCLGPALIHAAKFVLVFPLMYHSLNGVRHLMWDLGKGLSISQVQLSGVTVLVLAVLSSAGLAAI
Sequence (Q6PCT8 57-159): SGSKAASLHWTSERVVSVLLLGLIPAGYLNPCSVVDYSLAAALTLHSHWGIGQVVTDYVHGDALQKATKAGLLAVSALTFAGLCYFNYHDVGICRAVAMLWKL

{"columns": ["Compound", "Unit String", "IC50"],
 "data": [
  ["COc1[nH]c(=O)c(C(=O)C(C)CC(C)C(Cl)CCl)c(O)c1OC (stereo not shown)", "nM", 3.7]
]}

====

biological target: bovine heart complex II (succinate-ubiquinone oxidoreductase) (Bos taurus, UniProt P35720+Q3T189+Q95123); construct: of the bovine heart, mitochondria prepared according to the method of S. Takamiya et al; from tissue; host or cells: bovine heart mitochondria; test: Inhibition of succinate dehydrogenase activity of bovine heart complex II (DCIP reduction); type: biochemical
Sequence (P31039 44-665 partner): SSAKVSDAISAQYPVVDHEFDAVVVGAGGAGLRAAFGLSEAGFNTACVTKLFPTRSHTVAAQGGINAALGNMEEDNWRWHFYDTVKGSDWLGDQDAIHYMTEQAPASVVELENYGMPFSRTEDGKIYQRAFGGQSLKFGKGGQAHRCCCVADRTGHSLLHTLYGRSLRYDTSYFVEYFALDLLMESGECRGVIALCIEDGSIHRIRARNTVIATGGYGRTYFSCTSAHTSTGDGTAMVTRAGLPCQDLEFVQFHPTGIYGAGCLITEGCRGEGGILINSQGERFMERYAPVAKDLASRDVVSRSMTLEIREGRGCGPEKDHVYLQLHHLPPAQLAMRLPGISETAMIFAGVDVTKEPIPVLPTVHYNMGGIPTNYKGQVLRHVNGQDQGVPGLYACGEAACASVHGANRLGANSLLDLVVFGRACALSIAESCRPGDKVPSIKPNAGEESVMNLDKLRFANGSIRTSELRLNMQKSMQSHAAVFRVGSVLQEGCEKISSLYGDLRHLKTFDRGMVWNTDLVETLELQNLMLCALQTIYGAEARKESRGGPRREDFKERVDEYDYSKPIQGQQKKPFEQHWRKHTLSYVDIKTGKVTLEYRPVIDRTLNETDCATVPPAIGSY
Sequence (Q3T189 29-280): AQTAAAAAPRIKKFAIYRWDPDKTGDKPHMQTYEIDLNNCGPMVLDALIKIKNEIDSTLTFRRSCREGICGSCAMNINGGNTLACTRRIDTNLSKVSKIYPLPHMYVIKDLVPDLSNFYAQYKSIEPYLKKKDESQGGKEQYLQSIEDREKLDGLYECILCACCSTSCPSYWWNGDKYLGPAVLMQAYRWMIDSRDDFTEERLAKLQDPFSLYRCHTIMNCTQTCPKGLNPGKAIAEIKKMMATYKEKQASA
Sequence (P35720 30-169): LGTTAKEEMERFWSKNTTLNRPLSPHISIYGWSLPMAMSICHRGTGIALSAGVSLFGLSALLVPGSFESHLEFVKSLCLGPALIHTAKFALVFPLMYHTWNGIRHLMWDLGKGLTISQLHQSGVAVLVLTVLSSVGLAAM
Sequence (Q95123 56-158): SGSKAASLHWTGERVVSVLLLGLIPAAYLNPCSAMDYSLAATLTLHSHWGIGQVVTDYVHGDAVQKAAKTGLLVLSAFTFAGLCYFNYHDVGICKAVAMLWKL
pIC50: −log10 of the molar value.

{"columns": ["Molecule", "pIC50"],
 "data": [
  ["COc1[nH]c(=O)c(C(=O)C(C)CC(C)C(Cl)CCl)c(O)c1OC (stereo not shown)", 8.44]
]}
